experimental_target: T1, human PDGF-BB (platelet derived growth factor B homodimer) (human, UniProt P01127)
T1 construct: Platelet derived growth factor B, human, homodimer, bought from PeproTech; the printed catalogue number may stand for 100-14B; source: bought: PeproTech, Catalog 100-148
T1 sequence (P01127 82-190): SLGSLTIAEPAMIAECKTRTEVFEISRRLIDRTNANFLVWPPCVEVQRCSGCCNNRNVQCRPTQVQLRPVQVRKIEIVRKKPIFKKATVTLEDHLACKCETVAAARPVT
experiment_description: SPR; Biacore T200, full kinetics; antibody captured by anti-human IgG on a CM5 chip; human PDGF-BB at 20, 10, 5, 2.5 and 1.25 nM, 50 s injection; HBS-EP+ N; 25 C; 1:1 Langmuir fit
condition_summary: both partners purified
Some binders, each annotated with its measured kon.

binder	kon, M⁻¹ s⁻¹
R2-006 (antibody, V domains shown, as the VH of m20 (R2-001_HC); as the VL of m20 (R2-001_LC) with S52K (Kabat); only the variable regions are written; source: HEK293, transient, purified from conditioned medium (protein A, TMAE, HIC)) VH: EVQLLQSGGGLVKPGGSLRLSCAASGFTFSSYAMSWVRQAPGKGLEWVSYISDDGSLKYYADSVKGRFTISRDNSKNTLYLQMNSLRAEDTAVYYCARHPYWYGGQLDLWGQGTLVTVSS VL: SYVLTQPPSVSVAPGKTARITCSGDSLGSYFVHWYQQKPGQSPVLVIYDDKKRPSGIPERFSGSNSGNTATLTISGTQAMDEADYYCSAFTHNSDVFGGGTKLTVL	3.97e+06
R2-001 (antibody, V domains shown, R2-001_HC: as the VH of m17 (R1-016), on which R2-001 was built; R2-001_LC: as the VL of m17 (R1-016) with FW1 changed to that of IGLV3-21*01; only the variable regions are written; also called round 2 parental R2-001; R2-001_HC with R2-001_LC; source: HEK293, transient, purified from conditioned medium (protein A, TMAE, HIC)) VH: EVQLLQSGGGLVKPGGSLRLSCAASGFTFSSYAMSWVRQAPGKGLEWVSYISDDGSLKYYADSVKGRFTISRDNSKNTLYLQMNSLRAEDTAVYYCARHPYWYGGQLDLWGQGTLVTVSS VL: SYVLTQPPSVSVAPGKTARITCSGDSLGSYFVHWYQQKPGQSPVLVIYDDSKRPSGIPERFSGSNSGNTATLTISGTQAMDEADYYCSAFTHNSDVFGGGTKLTVL	3.09e+06
R1-016 (antibody, V domains shown, only the variable regions are written; source: HEK293, transient, purified from conditioned medium (protein A, TMAE, HIC)) VH: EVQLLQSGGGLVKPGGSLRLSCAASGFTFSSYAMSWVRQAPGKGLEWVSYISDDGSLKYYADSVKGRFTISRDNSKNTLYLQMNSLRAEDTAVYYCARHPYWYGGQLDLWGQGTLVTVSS VL: SYELTQPPSVSVSPGQTASITCSGDSLGSYFVHWYQQKPGQSPVLVIYDDSKRPSGIPERFSGSNSGNTATLTISGTQAMDEADYYCSAFTHNSDVFGGGTKLTVL	4.88e+06
R2-020 (antibody, V domains shown, as the VH of m20 (R2-001_HC); as the VL of m20 (R2-001_LC) with D51N (Kabat); only the variable regions are written; source: HEK293, transient, purified from conditioned medium (protein A, TMAE, HIC)) VH: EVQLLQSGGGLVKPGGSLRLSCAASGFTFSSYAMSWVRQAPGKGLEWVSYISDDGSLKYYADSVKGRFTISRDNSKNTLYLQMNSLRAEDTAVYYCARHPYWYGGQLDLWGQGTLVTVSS VL: SYVLTQPPSVSVAPGKTARITCSGDSLGSYFVHWYQQKPGQSPVLVIYDNSKRPSGIPERFSGSNSGNTATLTISGTQAMDEADYYCSAFTHNSDVFGGGTKLTVL	2.04e+06
